- TESTED_TARGET: Angiotensin II Receptor
- TEST_PROTOCOL: AII receptor ligand-receptor binding assay (rat adrenal cortical microsomes, displacement of 3H-AII or 125I-AII)
- CONDITION: Table 7, 1 hour, room temperature
- Text: The hormone angiotensin II (AII) produces numerous biological responses (e.g. vasoconstriction) through stimulation of its receptors on cell membranes. For the purpose of identifying compounds such as AII antagonists which are capable of interacting with the AII receptor, a ligand-receptor binding assay was utilized for the initial screen. […] Receptor-bound ^3 H-AII or ^125 I-AII trapped in filter was quantitated by scintillation counting. […]
QUANTITY_KIND: IC50 (nM)

molecule="CCCc1nc(-c2cc3ccccc3c3ccccc23)c(C=O)n1Cc1ccc(-c2ccccc2-c2nn[nH]n2)cc1 [Example 24]" tested_target="Angiotensin II Receptor" quantity_kind=IC50 numeric_readout=170
molecule="CCCc1nc(-c2cc3ccccc3s2)c(C=O)n1Cc1ccc(-c2ccccc2-c2nn[nH]n2)cc1 [Example 7]" tested_target="Angiotensin II Receptor" quantity_kind=IC50 numeric_readout=29

(P) CCCc1nc(/C=C/c2cccc3ccccc23)c(C=O)n1Cc1ccc(-c2ccccc2-c2nn[nH]n2)cc1 [Example 96]
(Q) CCCc1nc(-c2cccc3ccccc23)c(C=O)n1Cc1ccc(-c2ccccc2-c2nnn[nH]2)cc1 [Example 1]
Of P and Q , which shows the smaller IC50 value? Returns: label corresponding to the selected item.
Q
(Q: 21 nM, P: 560 nM)

====

- TESTED_TARGET: Angiotensin II Receptor
- TEST_PROTOCOL: AII receptor ligand-receptor binding assay (rat adrenal cortical microsomes, displacement of 3H-AII or 125I-AII)
- CONDITION: Table 7, 1 hour, room temperature
pIC50: −log10 of the molar value.
QUANTITY_KIND: pIC50

compound="CCCc1nc(-c2cc3ccccc3o2)c(C=O)n1Cc1ccc(-c2ccccc2-c2nn[nH]n2)cc1 [Example 41]" quantity_kind=pIC50 numeric_readout=6.96

(a) CCCc1nc(-c2ccc3cc(OC)ccc3c2)c(C=O)n1Cc1ccc(-c2ccccc2-c2nn[nH]n2)cc1 [Example 11]
(b) CCCc1nc(/C=C\c2cccc3ccccc23)c(C=O)n1Cc1ccc(-c2ccccc2-c2nn[nH]n2)cc1 [Example 95]
(c) CCCc1nc(/C=C\c2ccc3ccccc3c2)c(C=O)n1Cc1ccc(-c2ccccc2-c2nn[nH]n2)cc1 [Example 97]
Arrange the 3 entries by pIC50 so the values rise. Record the ranking as a list of labels in the requested order.
c, a, b

(I) CCCc1nc(-c2ccc(F)c3ccccc23)c(C=O)n1Cc1ccc(-c2ccccc2-c2nn[nH]n2)cc1 [Example 8]
(II) CCCc1nc(-c2ccc3ccccc3c2)c(C=O)n1Cc1ccc(-c2ccccc2-c2nn[nH]n2)cc1 [Example 10]
Please state the entry with greater pIC50 among I and II . In your reply, give the label of the chosen option.
II
